- Test system: HCT-116
- Test details: NCI tumour cell line growth inhibition, 48 h
The source made the active and inactive calls. Rule as the data show it: active = GI50 up to about 1.1 µM and inactive = higher. Positions of bridges follow the written chain, without caps; N, C: chain ends. Residues, ends and D or L forms follow the SMILES beside them.
Assign a class; possible classes are true (1) (active), false (0) (inactive)

CC(=O)NCCC1CN(C(=O)/C=C\I)c2ccccc21 (stereo unspecified): false (0)
O=[N+]([O-])C(=C/c1ccccc1)/C(=C\c1ccccc1)[N+](=O)[O-]: false (0)
O=C(ON=C1c2ccccc2C(Br)C(Br)c2ccccc21)c1ccccc1 (stereo unspecified): false (0)
CC1=NN=C(N)N/C1=C\C(Sc1ccc(Cl)cc1)c1ccc([N+](=O)[O-])cc1 (stereo unspecified): false (0)
Cc1ccc(S(=O)(=O)Oc2cc(S(=O)(=O)O)cc3cc(S(=O)(=O)O)cc(N)c23)cc1: false (0)
Cc1nc2c(N)ncnc2o1: false (0)
O=C(O)CCC(=O)c1ccc[nH]1: false (0)
Cc1ccc(-c2cc(O)c3nc4ccccc4n3c2)cc1: false (0)
COC1=C(OC)C(=O)C(Cc2c(Cl)nc3n2CCS3)=C(C)C1=O: false (0)
CCCCN(CCCC)CCCn1cnc2ncccc2c1=O: false (0)

# fetch the recorded call for COc1ccc2c(CCNC(C)=O)c(C(C)=O)[nH]c2c1 here false (0)

# fetch the recorded call for O=c1[nH]c(=S)c2cc3c(=S)[nH]c(=O)n(CCO)c3nc2n1CCO here false (0)

# fetch the recorded call for CC(N/N=C(\S)N1CCCC1)c1cccnn1 (stereo unspecified) here true (1)

# fetch the recorded call for CN(C)c1ccc(/C=N/c2ccc(-c3nc4ccccc4s3)cc2)cc1 here false (0)

# fetch the recorded call for CCC(C)C1NC(=O)C(CC(C)C)NC(=O)C(C(C)C)NC(=O)C2CSSCC(NC1=O)C(=O)N2 (stereo unspecified) (cyclo(CCVLI); disulfide 1-2; configuration not given here) here true (1)
